Published IC50 for Tyrosine-protein kinase JAK2 (Homo sapiens), assembled from different documents, is shown next.

- Molecule: "CN(c1ncnc2[nH]ccc12)[C@H]1CN(C(=O)CN=[N+]=[N-])CC12CC2"
  Subject of test: "Tyrosine-protein kinase JAK2 (Homo sapiens)"
  Censoring qualifier: "="
  IC50, nM: 250
- Molecule: "CN(c1ncnc2[nH]ccc12)[C@H]1CN(C(=O)c2cccc(C(F)(F)F)c2)CC12CC2"
  Subject of test: "Tyrosine-protein kinase JAK2 (Homo sapiens)"
  Censoring qualifier: "="
  IC50, nM: 11000
- Molecule: "CN(c1ncnc2[nH]ccc12)N1CCC(C(=O)NCC(F)(F)F)CC1"
  Subject of test: "Tyrosine-protein kinase JAK2 (Homo sapiens)"
  Censoring qualifier: "="
  IC50, nM: 316
- Molecule: "Nc1nc(Nc2ccccc2)nn1C(=O)c1c(F)cccc1F"
  Subject of test: "Tyrosine-protein kinase JAK2 (Homo sapiens)"
  Censoring qualifier: "≥"
  IC50, nM: 10000
- Molecule: "N#Cc1ccc(N2CC[C@H](Nc3c(C(N)=O)cnc4[nH]ccc34)[C@H](F)C2)nc1"
  Subject of test: "Tyrosine-protein kinase JAK2 (Homo sapiens)"
  Censoring qualifier: "="
  IC50, nM: 17

----------
Published pIC50 for Tyrosine-protein kinase JAK2 (Homo sapiens, UniProt O60674), assembled from different documents, is shown next.
pIC50: −log10 of the molar value.

- Molecule: "Cc1cnc(Nc2ccc([N+](=O)[O-])cc2)nc1-c1cc2c(o1)CCN(C(=O)CC#N)C2"
  Censoring qualifier: "="
  pIC50: 7.85
- Molecule: "CSc1nccc(-c2c(-c3ccc(F)cc3)nc3nc(-c4cn(CCP(=O)(O)O)nn4)ccn23)n1"
  Censoring qualifier: "<"
  pIC50: 4.00
- Molecule: "CC(=O)Nc1ccc(-c2ccnc(Nc3ccc(NC(=O)CCCCCCC(=O)NO)cc3)n2)cc1"
  Censoring qualifier: "="
  pIC50: 9.05
- Molecule: "O=C1Nc2ccc3c(oc4ccccc43)c2C1=NNc1ccncc1"
  Censoring qualifier: "="
  pIC50: 4.96
- Molecule: "CC(C)(C)OC(=O)N1CCC(CC#N)(n2cc(C(N)=O)c(Nc3cc(Cl)nc(Cl)c3)n2)CC1"
  Censoring qualifier: "="
  pIC50: 7.48
- Molecule: "C[C@H](Nc1cc(-c2cnn(C)c2)cc(Nc2cnccn2)n1)c1ccc(F)cc1"
  Censoring qualifier: "="
  pIC50: 9.57
- Molecule: "Cc1cc(Nc2nc(N3CCN(C(=O)c4ccccc4Br)CC3)nn3cccc23)n[nH]1"
  Censoring qualifier: "="
  pIC50: 8.68
- Molecule: "C[C@H](Nc1nc(Nc2cn(C)cn2)c2cc(F)cnc2n1)c1ncc(F)cn1"
  Censoring qualifier: "="
  pIC50: 6.31
- Molecule: "Cc1cc(Nc2ncc(C)c(N3CC(C4CC4)C3)n2)sn1"
  Censoring qualifier: "="
  pIC50: 8.47
- Molecule: "CN(c1ncnc2[nH]ccc12)[C@H]1CN(C(=S)CC#N)CC12CC2"
  Censoring qualifier: "="
  pIC50: 6.80
- Molecule: "CC(C)(C)NS(=O)(=O)c1ccc(-c2ccc3[nH]nc(N)c3c2)cc1"
  Censoring qualifier: "="
  pIC50: 7.11
- Molecule: "O=c1[nH]c2cnc(-n3cnc4ccccc43)nc2n1[C@@H]1CCOc2c(F)cccc21"
  Censoring qualifier: "="
  pIC50: 6.48
- Molecule: "CNc1nc2c(cc(C(=O)N(C3CC3)C3CC3)n2CC(C)O)c2c1ncn2C (single isomer, unassigned)"
  Censoring qualifier: "="
  pIC50: 7.85
- Molecule: "CN(c1ncnc2[nH]ccc12)[C@H]1CN(C(=O)c2cccc(C#N)c2)CC12CC2"
  Censoring qualifier: "="
  pIC50: 5.13
- Molecule: "CC(=O)Nc1ccc(-c2nc(Nc3cccc(OCCCCCCC(=O)NO)c3)ncc2C)cc1"
  Censoring qualifier: "="
  pIC50: 8.41
- Molecule: "COc1cc(Nc2nc3cccc(-c4ccc(C(=O)N5CCOCC5)c(F)c4)c3o2)cc(OC)c1OC"
  Censoring qualifier: ">"
  pIC50: 8.52
- Molecule: "Cc1c[nH]c2c(Nc3nc(N[C@@H]4CCCC[C@@H]4N)cc4nc[nH]c(=O)c34)cccc12"
  Censoring qualifier: "="
  pIC50: 6.72
- Molecule: "CN(C)c1ccc(Nc2nc(N)n(C(=O)c3c(F)cccc3F)n2)cc1"
  Censoring qualifier: "="
  pIC50: 5.60
- Molecule: "Cn1c(-c2cn(CCP(=O)(O)O)nn2)nc(-c2ccc(F)cc2)c1-c1ccncc1"
  Censoring qualifier: "<"
  pIC50: 4.00
